Kindly state IC50 for each of the entries shown.
target.under.test: NOX1/A1/O1 (Homo sapiens)
Construct: expressed in transfected cells; host or cells: HEK293
measurement.description: NOX1-dependent ROS production, luminescence assay for O2.- in HEK293 cells expressing the NOX1 complex
Format: cell-based
condition: 3-5 independent experiments; exposure for 30 min; read-out: IC50 ± SE, NOX1/A1/O1 HEK 293
API: value field is a number in nM; no unit string.

Q) Consider the compound CN(C)Cc1ccc2c(c1)[I+]c1cc(CN(C)C)ccc1-2.[I-] [Compound 24] and give its measured IC50.
A) 2520

Q) # query: IC50 of entry [Cl-].c1csc([I+]c2cccs2)c1 [Compound 1, di-2-thienyliodonium chloride, reference compound]
A) 3410

Q) Consider the compound shown here: COC(=O)c1ccc2c(c1)[I+]c1ccccc1-2.Cc1ccc(S(=O)(=O)[O-])cc1 [Compound 21] What is its recorded IC50?
A) 249

Q) Which IC50 reading was recorded for the compound Brc1ccc2c(c1)[I+]c1cc(Br)ccc1-2.[Br-] [Compound 16, Dibenziodolium, 3,7-dibromo-, bromide] ?
A) 70

Q) Name the reported IC50 value associated with the compound O=S(=O)([O-])C(F)(F)F.c1csc([I+]c2cccs2)c1 [Compound 3, di-2-thienyliodonium triflate]
A) 2220

Q) Given O=[N+]([O-])c1ccc2c(c1)[I+]c1cc([N+](=O)[O-])ccc1-2.[Br-] [Compound 15, Dibenziodolium, 3,7-dinitro-, bromide] , state its recorded IC50.
A) 357

* * *

Hi there, I'd appreciate the recorded IC50 for every entry that follows.
System: HT-29 human colon cancer cells
measurement.description: Growth inhibition of HT-29 cells by MTT assay
Assay type: cell-based
condition: Homo sapiens, HT-29, 48 h, read-out: IC50, HT-29 human colon cancer cell growth
Dear colleague, please return just the value in µM, with no unit written.

Q) Observed IC50 on HT-29 human colon cancer cells for O=[N+]([O-])c1ccc2c(c1)[I+]c1cc([N+](=O)[O-])ccc1-2.[Br-] [Compound 15, Dibenziodolium, 3,7-dinitro-, bromide] , please.
A) 0.202

Q) Report IC50 for `CN(C)Cc1ccc2c(c1)[I+]c1cc(CN(C)C)ccc1-2.[I-]` tested on HT-29 human colon cancer cells.
A) 0.087

Q) IC50 of Brc1ccc2c(c1)[I+]c1cc(Br)ccc1-2.[Br-] [Compound 16, Dibenziodolium, 3,7-dibromo-, bromide] on HT-29 human colon cancer cells?
A) 0.05

* * *

Tested on: HT-29 human colon cancer cells
measurement.description: Clonogenic assay, HT-29 cells
Type: cell-based
condition: Homo sapiens, HT-29, 240 h; 10 days exposure; read-out: IC50 clonogenic survival, 10 days drug exposure
Description: Several iodonium analog compounds were analyzed for inhibition of HT-29 growth using a clonogenic assay performed as described in Doroshow et al Biochem. Biophys. Res. Commun. 135: 330-335, 1986.
measured.quantity: IC50

Q) Can you look up the measured IC50 of c1ccc2c(c1)[I+]c1ccccc1-2 [Compound 13, Diphenyleneiodonium chloride, reference compound] for me?
A) ~10 nM

* * *

target.under.test: DUOX2/A2 (Homo sapiens)
Sequence (Q9NRD8 26-1548): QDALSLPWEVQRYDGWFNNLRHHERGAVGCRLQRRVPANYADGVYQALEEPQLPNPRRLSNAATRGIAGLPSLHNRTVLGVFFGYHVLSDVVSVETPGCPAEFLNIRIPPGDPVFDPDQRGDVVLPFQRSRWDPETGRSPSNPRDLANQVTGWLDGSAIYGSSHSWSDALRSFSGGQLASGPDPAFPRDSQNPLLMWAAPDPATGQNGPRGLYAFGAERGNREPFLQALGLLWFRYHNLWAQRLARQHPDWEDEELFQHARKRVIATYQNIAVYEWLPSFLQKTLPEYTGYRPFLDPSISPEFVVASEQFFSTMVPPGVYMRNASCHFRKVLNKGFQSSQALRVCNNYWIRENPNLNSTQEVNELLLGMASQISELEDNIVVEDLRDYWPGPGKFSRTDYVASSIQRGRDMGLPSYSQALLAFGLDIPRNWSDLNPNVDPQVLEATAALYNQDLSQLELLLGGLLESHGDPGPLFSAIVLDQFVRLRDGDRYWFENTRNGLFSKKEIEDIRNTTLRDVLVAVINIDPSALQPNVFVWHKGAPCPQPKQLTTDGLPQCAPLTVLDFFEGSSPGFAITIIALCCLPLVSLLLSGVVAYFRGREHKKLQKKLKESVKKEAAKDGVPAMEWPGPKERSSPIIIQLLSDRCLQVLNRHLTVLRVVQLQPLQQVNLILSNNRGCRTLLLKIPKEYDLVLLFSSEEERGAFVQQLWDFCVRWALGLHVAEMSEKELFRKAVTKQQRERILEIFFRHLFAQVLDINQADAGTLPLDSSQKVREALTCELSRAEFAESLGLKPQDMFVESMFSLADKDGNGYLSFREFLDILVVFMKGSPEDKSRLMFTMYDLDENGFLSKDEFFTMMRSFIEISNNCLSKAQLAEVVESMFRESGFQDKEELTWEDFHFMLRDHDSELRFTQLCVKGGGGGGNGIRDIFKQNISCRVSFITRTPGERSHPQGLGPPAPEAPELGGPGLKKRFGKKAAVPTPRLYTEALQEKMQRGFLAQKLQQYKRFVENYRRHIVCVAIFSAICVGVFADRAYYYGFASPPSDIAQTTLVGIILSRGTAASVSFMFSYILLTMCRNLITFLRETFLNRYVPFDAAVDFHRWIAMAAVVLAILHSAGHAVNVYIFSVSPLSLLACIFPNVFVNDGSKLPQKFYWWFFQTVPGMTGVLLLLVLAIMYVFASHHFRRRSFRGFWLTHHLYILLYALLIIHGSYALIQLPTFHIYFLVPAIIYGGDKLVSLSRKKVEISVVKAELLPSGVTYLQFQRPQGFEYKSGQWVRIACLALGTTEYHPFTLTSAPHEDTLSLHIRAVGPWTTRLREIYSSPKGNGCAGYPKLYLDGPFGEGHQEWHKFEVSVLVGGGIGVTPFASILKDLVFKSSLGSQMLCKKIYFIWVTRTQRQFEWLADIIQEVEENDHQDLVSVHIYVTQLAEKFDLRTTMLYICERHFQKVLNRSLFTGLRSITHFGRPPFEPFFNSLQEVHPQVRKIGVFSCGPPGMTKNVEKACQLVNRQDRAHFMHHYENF
Sequence (Q1HG44 whole entry partner): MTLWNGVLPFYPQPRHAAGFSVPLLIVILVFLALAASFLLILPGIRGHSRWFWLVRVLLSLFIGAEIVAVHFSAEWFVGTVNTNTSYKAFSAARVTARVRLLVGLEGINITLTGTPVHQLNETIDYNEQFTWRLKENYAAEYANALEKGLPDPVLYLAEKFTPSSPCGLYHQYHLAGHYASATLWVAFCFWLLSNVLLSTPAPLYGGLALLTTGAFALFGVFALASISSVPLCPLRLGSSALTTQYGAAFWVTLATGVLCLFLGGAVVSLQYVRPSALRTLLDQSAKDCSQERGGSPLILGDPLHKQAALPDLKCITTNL
measurement.description: DUOX2-dependent H2O2 production, Amplex Red assay in reconstituted HEK293 cells
Assay type: cell-based
condition: 3-5 independent experiments; read-out: IC50 ± SE, DUOX2/A2 HEK 293
measured.quantity: pIC50
On this scale, pIC50 is minus log10 of a concentration expressed in M (mol/L).

Q) Endpoint output: pIC50 of O=[N+]([O-])c1ccc2c(c1)[I+]c1cc([N+](=O)[O-])ccc1-2.[Br-] [Compound 15, Dibenziodolium, 3,7-dinitro-, bromide] . Value?
A) 6.65

Q) Field request: pIC50 | item: `COC(=O)c1ccc2c(c1)[I+]c1ccccc1-2.Cc1ccc(S(=O)(=O)[O-])cc1`
A) 5.70

Q) Entry under review: Brc1ccc2c(c1)[I+]c1cc(Br)ccc1-2.[Br-] [Compound 16, Dibenziodolium, 3,7-dibromo-, bromide] . Reported pIC50?
A) 5.38

Each recorded value in this set is attributed to patent US10131659B2.
